- System under test: p38α (Homo sapiens)
- Construct: p38 MAP Kinases are recombinant human full-length proteins with an amino-terminal GST fusion; GST (N)
- Sequence (Q16539 whole entry, the tested form may be a part): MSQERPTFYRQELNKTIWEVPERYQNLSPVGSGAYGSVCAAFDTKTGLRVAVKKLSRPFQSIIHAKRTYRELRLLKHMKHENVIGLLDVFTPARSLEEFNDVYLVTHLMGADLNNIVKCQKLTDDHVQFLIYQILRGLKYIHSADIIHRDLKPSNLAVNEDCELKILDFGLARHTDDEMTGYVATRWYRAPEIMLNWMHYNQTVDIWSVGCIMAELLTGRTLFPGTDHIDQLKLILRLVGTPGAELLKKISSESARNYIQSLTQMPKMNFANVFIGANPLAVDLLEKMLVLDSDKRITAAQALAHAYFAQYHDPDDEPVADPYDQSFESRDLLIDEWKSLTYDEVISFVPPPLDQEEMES
- Assay info: p38 MAP Kinase assay, ATF2 phosphorylation (ELISA)
- Condition details: 40 μM ATP
pIC50: −log10 of the molar value.
Measured quantity: pIC50

I = CC(CO)(CO)Nc1nccc(-c2c(-c3ccc(F)cc3)nc3occn23)n1 [LXXXII]
II = Nc1cc(-c2c(-c3ccc(F)cc3)nc3sccn23)nc(NC2CC2)n1 [CCXXIII]
III = CS(=O)(=O)c1nccc(-c2c(-c3ccc(F)cc3)nc3sccn23)n1 [CXL]
IV = NCCCNc1nccc(-c2c(-c3ccc(F)cc3)nc3occn23)n1 [XCI]
// query Given 4 molecules, produce a descending ranking by pIC50. The labels, placed in the requested order, form the answer.
// result IV, I, III, II

P = CC(C)(CNC(=O)OC(C)(C)C)CNc1nccc(-c2c(-c3ccc(F)cc3)nc3sccn23)n1 [CCLXIII]
Q = CC[C@@H](CO)Nc1nccc(-c2c(-c3ccc(F)cc3)nc3sccn23)n1 [CCXIX]
// query Which of the two gives a bigger number for pIC50: P or Q ? Response format: the label of the selected entry.
// result Q
(Q: 8.52, P: 8.23)

P = Oc1ccc(CCNc2nccc(-c3c(-c4ccc(F)cc4)nc4sccn34)n2)cc1 [CCXXXIX]
Q = Nc1cc(-c2c(-c3ccc(F)cc3)nc3sccn23)nc(NCC2CC2)n1 [CCXXIV]
R = Cc1ccc(-c2nc3sccn3c2-c2ccnc(N[C@H](CO)C(C)C)n2)cc1 [CCLXXVII]
// query Order the records so the highest pIC50 appears first and the lowest last. The labels, placed in the requested order, form the answer.
// result P, R, Q
(P: 8.24, R: 6.83, Q: 5.80)

a = N#CCCNc1nccc(-c2c(-c3ccc(F)cc3)nc3occn23)n1 [XIX]
b = CC(C)(C)OC(=O)N1CCC(Nc2nccc(-c3c(-c4ccc(F)cc4Cl)nc4occn34)n2)CC1 [CCLXXXIV]
// query Field: lower pIC50 | Options: a / b Response format: the label of the selected entry.
// result a
(a: 7.00, b: 8.85)
